- targetEntity: A2A receptor (Homo sapiens)
- Sequence (P29274 whole entry): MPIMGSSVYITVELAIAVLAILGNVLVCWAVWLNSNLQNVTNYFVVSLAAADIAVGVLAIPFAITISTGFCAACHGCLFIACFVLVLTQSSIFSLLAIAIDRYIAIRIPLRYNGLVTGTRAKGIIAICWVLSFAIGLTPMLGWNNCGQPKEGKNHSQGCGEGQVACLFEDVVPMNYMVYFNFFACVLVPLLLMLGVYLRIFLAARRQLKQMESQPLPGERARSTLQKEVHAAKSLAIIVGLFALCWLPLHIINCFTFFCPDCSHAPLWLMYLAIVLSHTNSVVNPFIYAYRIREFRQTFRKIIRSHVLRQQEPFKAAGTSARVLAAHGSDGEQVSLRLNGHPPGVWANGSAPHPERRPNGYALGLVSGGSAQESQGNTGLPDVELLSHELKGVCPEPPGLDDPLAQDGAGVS
- assayNotes: A2A receptor antagonist functional assay (cAMP, NECA at EC80)
- studyConditions: A2A cell line (PerkinElmer ES-011-C); 5'-N-ethylcarboxamidoadenosine at EC80; cAMP readout; read-out: A2A Antagonistic function IC50

[
  {
    "chemicalString": "Cc1ccc(-c2nc(N)nc3c(Cc4cccc(Cl)c4)noc23)o1",
    "IC50 (nM)": 3.7
  },
  {
    "chemicalString": "COc1cccc(Cc2noc3c(-c4ccc(C)o4)nc(N)nc23)c1",
    "IC50 (nM)": 3.8
  },
  {
    "chemicalString": "COc1ccccc1Cc1noc2c(-c3ccc(C)o3)nc(N)nc12",
    "IC50 (nM)": 6.9
  },
  {
    "chemicalString": "Cc1ccc(-c2nc(N)nc3c(Cc4ccc(Cl)cc4)noc23)o1",
    "IC50 (nM)": 31.8
  },
  {
    "chemicalString": "Cc1ccc(-c2nc(N)nc3c(Cc4ccc(O)cc4)noc23)o1",
    "IC50 (nM)": 80
  },
  {
    "chemicalString": "Cc1ccc(-c2nc(N)nc3c(Cc4ccccc4O)noc23)o1",
    "IC50 (nM)": 10.2
  },
  {
    "chemicalString": "Cc1ccc(-c2nc(N)nc3c(Cc4ccc(F)cc4)noc23)o1",
    "IC50 (nM)": 7
  },
  {
    "chemicalString": "Cc1ccc(-c2nc(N)nc3c(Cc4cccc(O)c4)noc23)o1",
    "IC50 (nM)": 11
  },
  {
    "chemicalString": "COc1ccc(Cc2noc3c(-c4ccc(C)o4)nc(N)nc23)cc1",
    "IC50 (nM)": 120
  }
]
